# test_target: Lysine-specific demethylase 5B (Homo sapiens)
# method_description: Primary screen for KDM5B Histone Demethylases FDH-coupled qHTS; also: nearly all actives have a fitted effect of over 70% in size
# reported_conditions: FDH-coupled NADH fluorescence (FDH is formaldehyde dehydrogenase); series mostly up to 57.7 µM
# Description: Assay Submitter (PI): Qin Yan, Ph.D. (Yale University) and Xiaodong Cheng, Ph.D. (MD Anderson) This project was funded as part of the NCI NEXT Program and Chemical Biology Consortium (CBC) The histone demethylases, KDM5A and KDM5B catalyze the demethylation of lysine 4 on histone H3 (H3K4me3/2). They are overexpressed in a variety of cancers and have been implicated in cancer cell growth, metastasis, drug resistance, and tumor growth. […]
About 5,700 (2.6%) of roughly 220,000 compounds were called active. Not shown: some 18% with an inconclusive outcome. Calls follow the shape of the dose curve; as a rule, active = well fitted inhibition curve with a large enough effect; inconclusive = small, poorly fitted or top-dose-only effect; inactive = no such curve, though single readings can be large or run the other way. The sample holds actives, similar compounds and a random draw of the others, so the mix is not that of the screen.
Labels: class 1 for active, class 0 for inactive

* COc1ccc(NC(=O)c2c(Cl)cccc2Cl)cc1 | class 0
* COc1ccc(CNC(=O)c2cc3c(s2)CN(C2CC2)C3)cc1OC | class 1
* CCCc1noc(CSc2nc(-c3ccco3)nc3ccccc23)n1 | class 0
* COc1ccc(CC(=O)Nc2ccc(C(=O)NC(C)(C)C)cc2)cc1 | class 0
* CNc1ccc(OC2CCN(C(=O)NCCc3ccccc3)CC2)nc1 | class 1
* CCOCC(=O)Nc1nn(-c2cccc(F)c2)c2cccc(N3CCOC3=O)c12 | class 1
* CC1(C)CC(=O)C2=C(C1)Nc1nc(N)[nH]c(=O)c1C2c1ccc2c(c1)OCO2 (stereo not given) | class 0
* Cc1cnc(CCNC(=O)Nc2ccccc2F)n1C1CCC1 | class 0
* COC1CN(c2cccc(F)c2)C12CCN(C1CCOCC1)CC2 (stereo not given) | class 0
* Cc1nn(CC(=O)NC(C)(C)C)c(C)c1S(=O)(=O)N1CCCC(C(=O)N2CCC(C)CC2)C1 (stereo not given) | class 0
* Cc1ccc2c(C)cc(SCC(=O)NC3CC3)nc2c1 | class 0
* O=[N+]([O-])c1cc(C(F)(F)F)ccc1NCCc1ccncc1 | class 0
* CCCCn1nc(C(=O)NC(CC)CC)c2ccccc2c1=O | class 0
* O=C(CCc1ncc(-c2ccc(F)cc2)o1)NC1CCN(Cc2ccccc2)C1 (stereo not given) | class 0
* O=C(O)CC1(CC(=O)NC2CCN(Cc3ccccc3)CC2)CCCC1 | class 0
* CCC(C)c1ccc(-n2c(SCC(=O)N3CCC3)nc3ccccc3c2=O)cc1 (stereo not given) | class 0
* CC(C)CC(=O)N1CCN(c2nnc3ccccn23)CC1 | class 1
* O=C(OCc1nc2ccccc2o1)c1ccccc1Br | class 0
* COc1ccc(C(=O)Nc2cccc(-c3nnc4n3CCCC4)c2)cc1 | class 0
* O=C(CCc1ncc(-c2ccccc2)o1)Nc1nc2ccccc2s1 | class 0
* CCc1ccc(C(=O)C(C)Sc2nc3ccccc3c(=O)n2CCC(=O)OC)cc1 (stereo not given) | class 0
* O=S(=O)(NCCc1csc2nc(-c3ccccc3)nn12)c1cc(Cl)ccc1Cl | class 0
* COc1cccc(NC(=O)Cn2c(=O)cc(C)c3c(C)nn(-c4cccc(F)c4)c32)c1 | class 0
* O=C(c1ccsc1)N1CCN(c2nnc3ccc(C(F)(F)F)cn23)CC1 | class 0
* COc1ccccc1-c1cc(-c2cn[nH]c2)c2cncn2c1 | class 0
* Cc1ccc(C(=O)C(C)Sc2nnc3ccccn23)cc1 (stereo not given) | class 0
* Cc1cc(=O)oc2c(C)c(OC(=O)CN3C(=O)NC4(CCCC4)C3=O)ccc12 | class 0
* CCC(C)NC(=O)c1ccc(NC(=O)CC2SC(N3CCCCC3)=NC2=O)cc1 (stereo not given) | class 0
* CC(C)NC(=O)C1(CCO)CCN(c2ncccn2)C1 (stereo not given) | class 1
* Cc1ccc(NC(=O)c2ccc(F)cc2Cl)nc1 | class 0
* CC(C)c1ccc(/C=C(/C#N)c2nc3ccccc3[nH]2)cc1 | class 0
* COc1ccc(S(=O)(=O)NCCOc2ccccc2)cc1F | class 0
* CCC1CCc2c(sc(NC(=O)C(CC)CC)c2C#N)C1 (stereo not given) | class 0
* Cc1ccc(-c2nc3ccc(C(=O)N4CCC(CC(=O)N5CCCCCC5)CC4)cc3o2)cc1 | class 0
* Cc1nn(CC(=O)O)c(=O)c2nc(C(C)C)sc12 | class 0
* COC(=O)CC1c2cc(OC)c(OC)cc2CCN1Cc1nc(CC(C)C)no1 (stereo not given) | class 0
* COc1ccc(NC(=O)C2CCCN(Cc3nc(-c4ccc(OC)c(OC)c4)no3)C2)cc1OC (stereo not given) | class 0
* CCOc1ccccc1NC(=O)c1cnc2ccccc2n1 | class 0
* CC1(C)CC(NC(=O)Nc2ccc(OC(F)(F)F)cc2)CC(C)(C)N1 | class 0
* O=C(CCNc1cnc2cnccn12)NC1CCN(Cc2ccccc2)CC1 | class 1
* Cc1c(-c2ccccc2)oc2c(C(=O)N3CCN(C(=O)c4ccccc4)CC3)cccc2c1=O | class 0
* CCc1nc2nc3c(cn2n1)C(=O)CC(c1ccc(Cl)cc1)C3 (stereo not given) | class 0
* CC1CCC2(CC1)NC(=O)N(CC(=O)NCc1ccco1)C2=O (stereo not given) | class 0
* Cc1cccc(OC(C)C(=O)Nc2cc(-c3ccc(F)c(F)c3)no2)c1C (stereo not given) | class 0
* Cn1cc(CC(=O)N2CCCc3ncc(C(=O)NCCOc4ccccc4)cc32)c2ccccc21 | class 0
